The origin of these recorded values is patent US9150566B2.

pIC50 values for the compounds below.
molecular target: human orexin-1 receptor (Homo sapiens (Human), UniProt O43613); test: In vitro intracellular calcium measurements (FLIPR), antagonistic activity on orexin-1 receptor; type: cell-based; conditions: CHO cells expressing human orexin-1 receptor; FLIPR; 3 nM orexin-A agonist; 120 min antagonist incubation; geometric mean if determined several times; read-out: IC50 OX1
Sequence (O43613 whole entry): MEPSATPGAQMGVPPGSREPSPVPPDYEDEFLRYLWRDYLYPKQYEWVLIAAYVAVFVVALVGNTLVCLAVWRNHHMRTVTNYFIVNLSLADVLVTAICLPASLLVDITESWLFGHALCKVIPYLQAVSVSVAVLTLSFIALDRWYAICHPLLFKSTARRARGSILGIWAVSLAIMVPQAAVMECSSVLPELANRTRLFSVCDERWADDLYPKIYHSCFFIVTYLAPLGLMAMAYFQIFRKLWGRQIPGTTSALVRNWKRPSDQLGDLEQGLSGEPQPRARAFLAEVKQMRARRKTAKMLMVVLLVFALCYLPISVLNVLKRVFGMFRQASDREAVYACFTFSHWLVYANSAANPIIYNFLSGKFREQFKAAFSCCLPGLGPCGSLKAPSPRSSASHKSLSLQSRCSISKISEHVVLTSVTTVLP
When answering, recall that pIC50 equals minus log10 of the concentration in mol/L, and write that number alone.

Completed entries (count: 3):
CC[C@@H]1CN(C(=O)c2cc(C)ccc2-n2nccn2)[C@H](Cc2cccc(-n3nccn3)c2)CO1 [Example 142]	8.30
CC[C@@H]1CN(C(=O)c2ccccc2-n2nccn2)[C@H](Cc2cccc(-n3nccn3)c2)CO1 [Example 143]	7.72
O=C(c1cccc(Cl)c1-n1nccn1)N1CCOC[C@H]1Cc1cc(-c2ncon2)ccc1F [Example 180]	7.72

Continue with the compound presented below.
Req: Give the measured pIC50 of Cc1ccc(C[C@@H]2COCCN2C(=O)c2ccccc2-n2nccn2)cc1-c1nccs1 [Example 193] .
Resp: 9.00

###

biological target: CYP3A4 (Homo sapiens (Human)); experiment: CYP3A4 inhibition assay (human liver microsomes, testosterone 6β-hydroxylation); conditions: read-out: CYP3A4 IC50, 40 μM testosterone
Catalogue of pIC50 readings, one per entry.
Scale note: pIC50 = -log10(concentration in M).

Req: Bench note: what pIC50 did Cc1ccc(-n2nccn2)c(C(=O)N2C[C@@H](C)OC[C@H]2Cc2cccc(-c3ncccn3)c2)c1 show?
Resp: 4.37

Req: Also check C[C@@H]1CN(C(=O)c2cccc(Cl)c2-n2nccn2)[C@H](Cc2cc(-c3ncccn3)ccc2F)CO1
Resp: 4.62

Req: Further, for Cc1ccc(C(=O)N2CCOC[C@H]2Cc2cc(-c3ncon3)ccc2F)c(-n2nccn2)c1 ?
Resp: 4.46

Req: Item: Cc1ccc(-n2nccn2)c(C(=O)N2CCOC[C@H]2Cc2cc(-c3ncon3)ccc2F)c1
Resp: 4.30

###

target: UniProt P08684; assay: CYP3A4 inhibition assay (human liver microsomes, testosterone 6β-hydroxylation); conditions: read-out: CYP3A4 IC50, 40 μM testosterone
Mark each entry Satisfied if its IC50 sits below 30 µM, and Not satisfied for all others.

The examples below pair each entry with its known result.
Cc1ccc(C(=O)N2CCO[C@H](C)[C@H]2Cc2cccc(-n3nccn3)c2)c(-n2nccn2)c1 (single isomer, unassigned)	Satisfied
Cc1ccc(C(=O)N2CCOC[C@H]2Cc2cc(-n3nccn3)ccc2F)c(-n2nccn2)c1	Satisfied
C[C@@H]1CN(C(=O)c2ccccc2-n2nccn2)[C@H](Cc2cccc(-c3ncccn3)c2)CO1	Not satisfied
O=C(c1ccccc1-n1nccn1)N1CCOC[C@H]1Cc1cc(F)cc(-n2nccn2)c1	Satisfied

Req: For this compound, is IC50 lower than 30 µM? O=C(c1ccccc1-n1nccn1)N1CCOC[C@H]1Cc1cccc(-c2ncccn2)c1
Resp: Not satisfied

Req: Try this compound next: Cc1ccc(-n2nccn2)c(C(=O)N2CCOC[C@H]2Cc2cccc(-c3ccccn3)c2)c1
Resp: Not satisfied

###

target: CYP3A4 (Homo sapiens (Human), UniProt P08684); assay: CYP3A4 inhibition assay (human liver microsomes, testosterone 6β-hydroxylation); conditions: read-out: CYP3A4 IC50, 40 μM testosterone
Sequence (P08684 whole entry): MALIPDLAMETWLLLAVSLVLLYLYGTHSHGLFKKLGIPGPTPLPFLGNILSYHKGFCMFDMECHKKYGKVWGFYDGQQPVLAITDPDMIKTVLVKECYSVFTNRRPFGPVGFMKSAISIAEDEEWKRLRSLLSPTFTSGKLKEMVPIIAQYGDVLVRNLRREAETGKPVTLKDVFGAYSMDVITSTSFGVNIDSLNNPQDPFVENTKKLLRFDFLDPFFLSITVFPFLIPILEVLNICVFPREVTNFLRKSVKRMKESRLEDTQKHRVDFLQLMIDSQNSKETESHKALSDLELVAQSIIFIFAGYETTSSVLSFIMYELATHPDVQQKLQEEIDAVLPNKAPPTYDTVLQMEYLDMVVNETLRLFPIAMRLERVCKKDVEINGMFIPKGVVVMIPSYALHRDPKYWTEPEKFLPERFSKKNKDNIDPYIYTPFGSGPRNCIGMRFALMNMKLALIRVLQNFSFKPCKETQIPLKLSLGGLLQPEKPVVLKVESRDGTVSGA
quantity-kind: pIC50
Reminder that pIC50 is minus the log10 of a molar concentration.

Cc1cc(C)c(-n2nccn2)c(C(=O)N2CCOC[C@H]2Cc2cccc(-n3nccn3)c2)c1 [Example 75]	4.82
O=C(c1ccccc1-n1nccn1)N1CCOC[C@H]1Cc1ccc(Cl)c(-c2ncon2)c1 [Example 90]	4.68
O=C(c1cccc(Cl)c1-n1nccn1)N1CCOC[C@H]1Cc1cc(-n2nccn2)ccc1F [Example 135]	4.52

Req: // fetch CYP3A4 (Homo sapiens (Human), UniProt P08684) pIC50 for Cc1ccc(-n2nccn2)c(C(=O)N2CCOC[C@@]2(C)Cc2cccc(-n3nccn3)c2)c1 [Example 102]
Resp: 4.77
